FYI, the data here is from ChEMBL document CHEMBL1201862.

Tested on: COLO 205
Assay: NCI tumour cell line growth inhibition, 48 h
Calls of active or inactive are those of the source. No stated cut-off is given here; in the data, active = GI50 up to about 1.1 µM and inactive = higher.
API: response.call in True for active, False for inactive

Exercise: Which outcome did this test record for the molecule COc1ccc(C2=NN(C(=O)c3cccnc3)C(O)(c3cc(F)c(Cl)cc3Cl)C2)cc1OC (stereo not given) ?
Key: False

Exercise: Consider next the molecule `COc1ccc2[nH]cc(/C=C(/C)c3ccncc3)c2c1` in the same way.
Key: False

Exercise: What do we get for CCOC(=O)CCC(NC(=O)C(N)Cc1ccc(N(CCCl)CCCl)cc1)C(=O)OCC (stereo not given) ?
Key: True

Exercise: Also need `Cc1cc(C)nc(NS(=O)(=O)c2ccc(Nc3c4ccccc4nc4c(C(=O)Nc5ccc(S(=O)(=O)Nc6cc(C)on6)cc5)cccc34)cc2)n1` , thanks.
Key: False

Exercise: Then this molecule: CC(C)c1cccc2sc(NC(=O)C(=O)C(C#N)c3cccc4ccccc34)nc12 (stereo not given)
Key: False

###

Can you tell me GI50 for the items I'm about to list?
Test system: NCI-H23
Assay: NCI tumour cell line growth inhibition, 48 h
Active and inactive are the calls of the source. Cut-off read from the data, not from the text of the source: active = GI50 up to about 1.1 µM and inactive = higher. Residues, ends and D or L forms follow the SMILES beside them. *: point of attachment. OBn = c1ccc(CO*)cc1

Exercise: Would you kindly share the measured GI50 for CC(=O)OC12/C(=N/O)CCCCCC1c1ccccc12 (configuration not stated) ?
Key: 70.8 µM (inactive)

Exercise: And CCCC[S+]([O-])CCC(N)C(=O)O (configuration not stated) ?
Key: > 100 µM (inactive)

Exercise: Would you kindly repeat that for NC(CCC(=O)OCc1ccccc1)C(=O)NC(CCC(=O)OCc1ccccc1)C(=O)O (configuration not stated) (H-Glu(OBn)-Glu(OBn)-OH; configuration not given here) ?
Key: > 100 µM (inactive)

Exercise: Further, for `CN/N=C(/Cc1occc(=O)c1O)C(=O)Nc1ccccc1C` ?
Key: > 100 µM (inactive)

Exercise: Likewise for C/C(=C1\C(=O)C(c2ccccc2)N(c2ccccc2)C1=O)c1ccc(Cl)cc1 (configuration not stated) ?
Key: 17.1 µM (inactive)

Exercise: Now try `NC(=O)c1cc2ccc(O)cc2o/c1=N/NC(=O)c1ccccc1` .
Key: 89.9 µM (inactive)

Exercise: Also check `O=C(NCCCCCCNC(=O)c1cccc2ccccc12)Nc1cccc2ccccc12`
Key: > 100 µM (inactive)

Exercise: Queued: `O=C(c1ccc(Cl)cc1)N(C(=S)OCc1ccccn1)c1ccccc1`
Key: 67.6 µM (inactive)

Exercise: Query `COC(=O)c1cc(C#N)[nH]c1-c1cc(Br)cs1` next
Key: 6.67 µM (inactive)

Exercise: Also check `COC(=O)CCc1ccc2c(c1)[C@H](C(=O)OC)[C@@H](c1ccc(O)cc1)O2`
Key: 71.6 µM (inactive)

Exercise: Would you kindly repeat that for COC(=O)C1(Cc2ccccc2)Cc2ccc3c(c2C1=O)CCC3 (configuration not stated) ?
Key: 32.2 µM (inactive)

Exercise: How about this compound: `CC(C)(/C=N\O)NO`
Key: > 10 µM (inactive)

###

Assignment: determine reported GI50 for the given compounds.
Tested on: NCI-H522
Experiment: NCI tumour cell line growth inhibition, 48 h
Calls of active or inactive are those of the source. Cut-off read from the data, not from the text of the source: active = GI50 up to about 1.1 µM and inactive = higher.

Exercise: If you can, please state the reported GI50 value of CC1=CCC2(C#N)CCC1C2O (stereo not drawn) .
Key: > 100 µM (inactive)

Exercise: Entry `CC1(C)CCCOc2cccc(c2)OCCCC(C)(C)C1=O` please
Key: 13.3 µM (inactive)

Exercise: Same question for CC(=O)OC12c3ccccc3-c3ccccc3C1C1C(=O)OC(=O)C12 (stereo not drawn) please.
Key: > 10 µM (inactive)

Exercise: Request: `O=C(CCC(=O)N/N=C/c1ccccc1O)N/N=C/c1ccccc1O`
Key: 53.2 µM (inactive)

Exercise: And the next one, `CCN(CC)Cc1sc2nc3ccccc3n2c1-c1ccc(OC)cc1` ?
Key: 4.11 µM (inactive)

Exercise: What about this compound? `O=C(Sc1c(-c2ccccc2)c(=O)n(-c2ccccc2)c(=S)n1-c1ccccc1)c1ccco1`
Key: > 76.9 µM (inactive)

Exercise: Consider next the compound `CCCc1cc(-c2ccc(-c3cc(CCC)c(C=O)[nH]3)s2)[nH]c1C=O` in the same way.
Key: 5.45 µM (inactive)

Exercise: What do you have for `COC(=O)c1c(C)nc(C)c(NO)c1-c1ccccc1C(F)(F)F` ?
Key: 17.2 µM (inactive)
